biological target: Tyrosine-protein kinase Blk (Homo sapiens) (UniProt P51451); details: at 0.1 µM;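 further: reported value is the mean percent inhibition of BLK kinase activity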
Sequence (P51451 2-505 limits assumed): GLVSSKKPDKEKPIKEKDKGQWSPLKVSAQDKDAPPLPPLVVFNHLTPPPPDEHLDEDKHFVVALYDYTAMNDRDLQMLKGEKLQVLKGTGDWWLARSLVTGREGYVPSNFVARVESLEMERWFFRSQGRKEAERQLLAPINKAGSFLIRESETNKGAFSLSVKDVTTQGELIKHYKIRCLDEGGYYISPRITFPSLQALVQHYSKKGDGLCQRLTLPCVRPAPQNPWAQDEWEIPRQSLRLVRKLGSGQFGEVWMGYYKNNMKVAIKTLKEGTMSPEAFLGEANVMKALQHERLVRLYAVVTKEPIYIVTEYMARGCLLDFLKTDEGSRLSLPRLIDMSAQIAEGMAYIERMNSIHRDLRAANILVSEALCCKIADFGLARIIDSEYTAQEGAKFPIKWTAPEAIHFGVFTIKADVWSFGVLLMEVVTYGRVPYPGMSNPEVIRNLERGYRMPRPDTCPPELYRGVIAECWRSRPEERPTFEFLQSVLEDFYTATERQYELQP
Recorded measurements of inhibition, one per entry
// note: answer is a bare numeric in %

Reference set, count: 4
> print(dat)
                               input.smiles  property.name  observed
1  Cc1ccc(C(=O)NC2CCC2)cc1-c1ccc(C(=O)NCC2CC2)cc1     inhibition       2.1
2  NC(=O)c1ccc(Oc2nccc(-c3c(-c4ccc(F)cc4)ncn3C3CCNCC3)n2)cc1     inhibition      3.48
3  CCS(=O)(=O)c1ccc(OC)c(Nc2ncc(-c3cccc(-c4ccccc4F)c3)o2)c1     inhibition      8.74
4  CN(c1ccc(NC(=O)Nc2c(Cl)cccc2Cl)cc1)c1ccnc(Nc2cccc(CS(C)(=O)=O)c2)n1     inhibition      37.2

Let us move to another entry and its inhibition.
Fill in inhibition for record `C[C@@H](Oc1cc(-n2cnc3ccc(OC4CCN(C)CC4)cc32)sc1C(N)=O)c1ccccc1Cl`
-0.86

###

Recorded measurements of inhibition, one per entry
biological target: Protein kinase C gamma type (Homo sapiens); conditions: at 0.1 µM
// note: answer is a bare numeric in %

> print(dat)
                               input.smiles  property.name  quantity.unit  observed
1  CS(=O)(=O)CCNCc1cc(-c2cc3c(Nc4ccc(OCc5cccc(F)c5)c(Cl)c4)ncnc3s2)cs1     inhibition              %      2.95

Return reported inhibition for target or system Protein kinase C gamma type (Homo sapiens), item `COc1cc(Nc2ncc3c(C)nc(-c4cccc(C(F)(F)F)c4)n3n2)cc(OC)c1OC` .
2.47

Return reported inhibition for target or system Protein kinase C gamma type (Homo sapiens), item `COc1cc(N2CCN(C(C)C)CC2)ccc1Nc1nc(Nc2ccc(F)cc2C(=O)NC[C@@H](O)CO)c2cc[nH]c2n1` .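 Further: values are mean percent inhibition of PKC gamma.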
-2.06

###

system: Mast/stem cell growth factor receptor Kit (Homo sapiens), P10721 [D816V]; settings: at 0.1 µM
Sequence (P10721 whole entry D816V): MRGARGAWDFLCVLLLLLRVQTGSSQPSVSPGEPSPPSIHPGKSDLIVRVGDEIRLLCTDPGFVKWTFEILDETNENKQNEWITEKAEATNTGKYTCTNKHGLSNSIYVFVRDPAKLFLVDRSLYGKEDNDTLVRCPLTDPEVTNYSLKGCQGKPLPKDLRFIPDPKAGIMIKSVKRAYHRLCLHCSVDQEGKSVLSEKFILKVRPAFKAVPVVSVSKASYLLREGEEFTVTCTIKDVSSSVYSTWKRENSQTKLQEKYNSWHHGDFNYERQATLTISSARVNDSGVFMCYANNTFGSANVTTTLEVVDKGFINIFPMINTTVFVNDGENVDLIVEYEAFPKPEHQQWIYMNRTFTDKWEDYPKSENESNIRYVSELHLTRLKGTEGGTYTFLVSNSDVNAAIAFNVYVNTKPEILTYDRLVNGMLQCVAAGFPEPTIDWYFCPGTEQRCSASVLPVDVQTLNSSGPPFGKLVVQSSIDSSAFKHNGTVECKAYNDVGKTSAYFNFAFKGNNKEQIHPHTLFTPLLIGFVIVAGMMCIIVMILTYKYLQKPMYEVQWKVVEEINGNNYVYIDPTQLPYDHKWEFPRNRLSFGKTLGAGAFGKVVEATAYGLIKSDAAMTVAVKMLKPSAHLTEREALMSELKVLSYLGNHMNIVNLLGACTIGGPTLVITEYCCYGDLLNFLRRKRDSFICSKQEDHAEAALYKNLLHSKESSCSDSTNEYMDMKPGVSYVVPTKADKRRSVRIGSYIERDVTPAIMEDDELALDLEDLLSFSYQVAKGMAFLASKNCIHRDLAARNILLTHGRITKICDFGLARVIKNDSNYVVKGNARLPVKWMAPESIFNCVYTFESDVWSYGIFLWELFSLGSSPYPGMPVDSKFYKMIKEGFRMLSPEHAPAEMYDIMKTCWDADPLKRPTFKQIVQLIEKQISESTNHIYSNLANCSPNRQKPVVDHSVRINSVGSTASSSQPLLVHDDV
property-name: inhibition (%)
// note: answer is a bare numeric in %

> print(dat)
                               input.smiles  observed
1  CCC(=O)Nc1ccc(C)c(-c2ccc(C(=O)NCC3CC3)cc2)c1     -1.54
2  COc1ccc(-c2ccc3c(NC(=O)C4CC4)n[nH]c3n2)cc1      3.21

Let us move to another entry and its inhibition.
Fill in inhibition for record `CN(c1ccc(NC(=O)Nc2c(Cl)cccc2Cl)cc1)c1ccnc(Nc2cccc(CS(C)(=O)=O)c2)n1`
-0.59

###

molecular target: Protein kinase C beta type (Homo sapiens) (UniProt P05771); details: at 0.1 µM;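 further: PKC-beta1 splice variant of the enzyme, figure reported as mean inhibition, measured within the GSK PKIS kinase profiling panel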
Sequence (P05771 2-671 limits assumed): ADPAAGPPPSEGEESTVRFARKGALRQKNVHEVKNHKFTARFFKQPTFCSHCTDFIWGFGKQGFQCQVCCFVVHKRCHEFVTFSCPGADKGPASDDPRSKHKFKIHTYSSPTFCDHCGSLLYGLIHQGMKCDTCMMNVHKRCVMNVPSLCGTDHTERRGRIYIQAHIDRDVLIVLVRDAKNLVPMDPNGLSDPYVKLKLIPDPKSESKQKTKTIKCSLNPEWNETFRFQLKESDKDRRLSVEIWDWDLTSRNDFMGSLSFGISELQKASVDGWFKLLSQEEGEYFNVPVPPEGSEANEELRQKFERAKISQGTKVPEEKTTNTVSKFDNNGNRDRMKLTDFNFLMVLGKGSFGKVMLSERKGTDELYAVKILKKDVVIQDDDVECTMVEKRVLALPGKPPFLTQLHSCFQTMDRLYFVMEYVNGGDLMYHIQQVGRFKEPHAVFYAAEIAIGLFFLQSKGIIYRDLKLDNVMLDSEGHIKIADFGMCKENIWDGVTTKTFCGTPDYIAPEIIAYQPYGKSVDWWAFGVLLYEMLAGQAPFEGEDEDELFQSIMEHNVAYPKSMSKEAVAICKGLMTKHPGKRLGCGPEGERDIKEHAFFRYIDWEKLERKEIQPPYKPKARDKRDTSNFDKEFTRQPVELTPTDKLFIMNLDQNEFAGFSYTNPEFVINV
Description: GSK_PKIS: PKC-beta1 (splice variant) mean inhibition at 0.1 uM [Nanosyn]
property-name: inhibition (%)
// note: answer is a bare numeric in %

> print(dat)
                                   molecule  quantity.unit  observed
1  Cc1ccc(C(=O)NC2CCC2)cc1-c1ccc(C(=O)NCC2CC2)cc1              %      0.31
2  Fc1ccc(-c2ncn(C3CCNCC3)c2-c2ccnc(Oc3ccc4c(c3)OCO4)n2)cc1              %      1.12
3  CN(c1ccc(NC(=O)Nc2c(Cl)cccc2Cl)cc1)c1ccnc(Nc2cccc(CS(C)(=O)=O)c2)n1              %      0.67

Fill in inhibition for record `NC(=O)c1ccc(Oc2nccc(-c3c(-c4ccc(F)cc4)ncn3C3CCNCC3)n2)cc1`
1.04

Fill in inhibition for record `COc1cccc(/C=N/Nc2ncnc3c2cnn3-c2cccc(OC)c2)c1`
-0.96

Fill in inhibition for record `NS(=O)(=O)c1ccc(N/N=C2\C(=O)Nc3ccc(-c4cnco4)cc32)cc1`
1.26

Fill in inhibition for record `COc1cc(Nc2ncc3c(C)nc(-c4cccc(C(F)(F)F)c4)n3n2)cc(OC)c1OC`
0.93

Fill in inhibition for record `COc1cc2ncn(-c3cc(OCc4ccccc4C(F)(F)F)c(C(C)=O)s3)c2cc1OC`
1.02

###

biological target: Mitogen-activated protein kinase kinase kinase kinase 2 (Homo sapiens) (UniProt Q12851); settings: at 1 µM;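 further: reported value is a mean of MAP4K2 inhibition at 1 µM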
Sequence (Q12851 whole entry): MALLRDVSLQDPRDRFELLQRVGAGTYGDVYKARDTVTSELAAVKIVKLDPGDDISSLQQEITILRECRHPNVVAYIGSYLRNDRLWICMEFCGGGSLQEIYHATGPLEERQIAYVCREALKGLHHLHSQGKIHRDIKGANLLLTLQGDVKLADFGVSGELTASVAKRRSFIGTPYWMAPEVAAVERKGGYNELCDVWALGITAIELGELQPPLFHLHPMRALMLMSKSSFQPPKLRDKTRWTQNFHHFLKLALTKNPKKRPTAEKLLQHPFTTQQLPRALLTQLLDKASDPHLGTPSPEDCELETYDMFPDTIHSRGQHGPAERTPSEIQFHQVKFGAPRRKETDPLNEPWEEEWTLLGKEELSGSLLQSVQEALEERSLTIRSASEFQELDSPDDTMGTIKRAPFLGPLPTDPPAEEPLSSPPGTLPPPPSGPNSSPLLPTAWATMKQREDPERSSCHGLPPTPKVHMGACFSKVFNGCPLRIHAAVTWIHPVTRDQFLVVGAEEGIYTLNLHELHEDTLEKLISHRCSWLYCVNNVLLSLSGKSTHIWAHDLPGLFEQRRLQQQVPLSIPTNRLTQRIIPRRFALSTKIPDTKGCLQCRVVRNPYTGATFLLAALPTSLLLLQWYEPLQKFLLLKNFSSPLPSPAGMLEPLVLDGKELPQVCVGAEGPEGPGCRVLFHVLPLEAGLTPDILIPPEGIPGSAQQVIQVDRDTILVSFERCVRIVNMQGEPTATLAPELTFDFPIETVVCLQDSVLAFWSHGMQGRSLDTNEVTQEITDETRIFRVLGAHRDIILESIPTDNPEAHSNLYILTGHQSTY
property-name: inhibition (%)
// note: answer is a bare numeric in %

Reference set, count: 4
> print(dat)
                               input.smiles  property.name  observed
1  COc1ccc(-c2ccc3c(NC(=O)C4CC4)n[nH]c3n2)cc1     inhibition      0.37
2  CN1CCN(CCCNc2nc3ccc(Oc4ccc(NC(=O)Nc5cc(C(F)(F)F)ccc5F)cc4)cc3[nH]2)CC1     inhibition      8.26
3      CCc1cccc(CC)c1/C=C/c1cncc(C(=O)NC)c1     inhibition      0.32
4     O=C(Nc1n[nH]c2nc(-c3ccco3)ccc12)C1CC1     inhibition      4.84

Fill in inhibition for record `C/C(Nc1ccc(S(N)(=O)=O)cc1)=C1/C(=O)Nc2ccccc21`
17.7

###

target: PAS domain-containing serine/threonine-protein kinase (Homo sapiens); conditions: at 0.1 µM
Description: GSK_PKIS: PASK mean inhibition at 0.1 uM [Nanosyn]
property-name: inhibition (%)
// note: answer is a bare numeric in %

Reference set, count: 4
> print(dat)
                               input.smiles                         system.under.test  property.name  quantity.unit  observed
1  NS(=O)(=O)c1ccc(N/N=C2\C(=O)Nc3ccc(C(=O)NCCCn4ccnc4)cc32)cc1  PAS domain-containing serine/threonine-protein kinase (Homo sapiens)     inhibition              %      0.17
2  NS(=O)(=O)c1ccc(Nc2cc(-c3ccc(O)c(F)c3)n[nH]2)cc1  PAS domain-containing serine/threonine-protein kinase (Homo sapiens)     inhibition              %     -0.77
3  COc1cc(Nc2ncc3c(C)nc(-c4cccc(C(F)(F)F)c4)n3n2)cc(OC)c1OC  PAS domain-containing serine/threonine-protein kinase (Homo sapiens)     inhibition              %     -0.04
4  CN(C)CCCNc1nccc(-c2c(-c3ccc(F)cc3)nn3cc(C(F)(F)F)ccc23)n1  PAS domain-containing serine/threonine-protein kinase (Homo sapiens)     inhibition              %      0.83

Let us move to another entry and its inhibition.
Fill in inhibition for record `NS(=O)(=O)c1ccc(N/N=C2\C(=O)Nc3ccc(-c4cnco4)cc32)cc1`
0.16

###

target: Sphingosine kinase 1 (Homo sapiens); conditions: at 0.1 µM;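 further: mean percent inhibition of SPHK1 activity, measured within the GSK PKIS screening panel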
property-name: inhibition
Field: value (include unit after the number)

Reference set, count: 2
> print(dat)
                               input.smiles  property.name  observed
1  NS(=O)(=O)c1ccc(N/N=C2\C(=O)Nc3ccc(C(=O)NCCCn4ccnc4)cc32)cc1     inhibition     14.8%
2  NC(=O)c1cc(-c2ccc(F)cc2)cc(-c2ccncc2)c1N     inhibition    -2.79%

Fill in inhibition for record `Fc1ccc(-c2ncn(C3CCNCC3)c2-c2ccnc(Oc3ccc4c(c3)OCO4)n2)cc1`
1.03%

Fill in inhibition for record `CCc1cccc(CC)c1/C=C/c1cncc(C(=O)NC)c1`
0.93%

Fill in inhibition for record `O=C(Nc1n[nH]c2nc(-c3ccco3)ccc12)C1CC1`
-0.31%

Fill in inhibition for record `CCC(=O)Nc1ccc(C)c(-c2ccc(C(=O)NCC3CC3)cc2)c1`
-3.42%

Fill in inhibition for record `C[C@@H](Oc1cc(-n2cnc3ccc(OCC4CCN(C)CC4)cc32)sc1C(N)=O)c1ccccc1Cl`
1.45%

###

molecular target: Calcium/calmodulin-dependent protein kinase type 1D (Homo sapiens); conditions: at 0.1 µM;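 further: reported figure is the mean inhibition of CAMK1D, from the GSK PKIS screening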
property-name: inhibition

> print(dat)
                                   molecule  observed
1  Nc1nccc(-c2c(-c3ccc(F)cc3)ncn2C2CCC(O)CC2)n1 (stereo unspecified)    -2.47%
2  Cc1ccc(NC(=O)c2ccoc2)cc1-c1ccc(C(=O)NCC2CC2)cc1    -0.63%
3  NC(=O)c1ccc(Oc2nccc(-c3c(-c4ccc(F)cc4)ncn3C3CCNCC3)n2)cc1     0.06%
4  CN(C)CCCNc1nccc(-c2c(-c3ccc(F)cc3)nn3cc(C(F)(F)F)ccc23)n1     1.56%

Let us move to another entry and its inhibition.
Fill in inhibition for record `COc1ccc2cc(-c3c(-c4ccncc4)nc(-c4ccc(S(C)(=O)=O)cc4C)n3C)ccc2c1`
1.08%

###

Recorded measurements of inhibition, one per entry
biological target: Tyrosine-protein kinase Lyn (Homo sapiens); conditions: at 0.1 µM;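 further: mean inhibition of the LYN B splice variant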
Description: GSK_PKIS: LYN B (splice variant) mean inhibition at 0.1 uM [Nanosyn]
// note: answer is a bare numeric in %

Reference set, count: 8
> print(dat)
                                   molecule  observed
1  Cc1nnc(-c2ccc(C)c(-c3ccc(C(=O)NCc4ccc(Cl)cc4)cc3)c2)o1      2.14
2  CCN(CC)Cc1ccc(Nc2nccc(-c3cnn4ncccc34)n2)cc1      2.02
3  COc1ccc(-c2ccc3c(NC(=O)C4CC4)n[nH]c3n2)cc1      0.89
4  C[C@@H](Oc1cc(-n2cnc3ccc(OC4CCN(C)CC4)cc32)sc1C(N)=O)c1ccccc1Cl      1.68
5  O=C(Nc1n[nH]c2cc(-c3cc(F)ccc3F)ccc12)C1CC1      3.27
6  Fc1ccc(-c2ncn(C3CCNCC3)c2-c2ccnc(Oc3ccc(Oc4ccccc4)cc3)n2)cc1      1.56
7  COc1cc(C)c(N(C)C(=O)CN(C)C)cc1Nc1nc(Nc2cccc(F)c2C(N)=O)c2cc[nH]c2n1     -0.16
8       Fc1ccc(-c2c(-c3ccncc3)nc3n2CCS3)cc1      1.33

Fill in inhibition for record `C/C(Nc1ccc(S(N)(=O)=O)cc1)=C1/C(=O)Nc2ccccc21`
0.71

Fill in inhibition for record `NS(=O)(=O)c1ccc(N/N=C2\C(=O)Nc3ccc(-c4cnco4)cc32)cc1`
1.68

Fill in inhibition for record `CN1CCN(CCCNc2nc3ccc(Oc4ccc(NC(=O)Nc5cc(C(F)(F)F)ccc5F)cc4)cc3[nH]2)CC1`
0.61

Fill in inhibition for record `CN(C)c1ccc2c(c1)/C(=C/Nc1ccc(S(N)(=O)=O)cc1)C(=O)N2`
2.71

Fill in inhibition for record `COc1cc2ncn(-c3cc(OCc4cccs4)c(C(N)=O)s3)c2cc1OC`
2.41
